methodNotes: NCI Yeast Anticancer Drug Screen. Data for the sgs1 mgt1 strain (AID 161)
studyConditions: S. cerevisiae sgs1 mgt1 strain, at 50.0 µM (retest, dose inferred, filed as 5.0), stronger effect = higher value
About 79,000 compounds went through this panel and 15% of them were active in at least one assay; those are over-represented in the sample as a whole.
Lab note: compare growth inhibition against 90%. Equal or greater, write Fulfilled. Smaller, write Not fulfilled.

[[record]]
compound = "COc1cc(C(=O)/C=C/c2ccccc2O)ccc1O"
cat = "Fulfilled"

[[record]]
compound = "COC(=O)C1=C(C)NC(C)=C(C(=O)OCCCN2CCC(c3ccccc3)(c3ccccc3)CC2)C1c1cccc([N+](=O)[O-])c1 (stereo unspecified)"
cat = "Fulfilled"

[[record]]
compound = "O=C1C2CC[C@@H]3C(=O)C(Cl)(Cl)[C@@H]3CCC2C1(Cl)Cl (stereo partly specified)"
cat = "Not fulfilled"


Enquiry: Confirm if growth inhibition reported for the compound CSC1=NNC(SC)=NN1 is 90% or above.
Return: Fulfilled

Enquiry: Record: O=C([O][Sn]([O]C(=O)c1ccccc1)([c]1ccccc1)[c]1ccccc1)c1ccccc1
Return: Not fulfilled

Enquiry: Record: CC(/C=C/c1ccc(Cl)cc1)=N\NC(=S)NCC(C)C
Return: Not fulfilled

Enquiry: Record: [O-][n+]1c2ccc(O)cc2nc2ccc(Br)cc21
Return: Not fulfilled

Enquiry: Record: N#Cc1c(N)[nH]c2ccc(Sc3ccccc3)cc12
Return: Not fulfilled

Enquiry: Record: Oc1ccc2ccccc2c1C(c1ccc(Cl)cc1)c1c(O)ccc2ccccc12
Return: Fulfilled
